- test.system: T1, Oct6 DNA-binding domain (BD-Oct6) (Mus musculus (B6), UniProt P21952 317-416)
- T1 sequence: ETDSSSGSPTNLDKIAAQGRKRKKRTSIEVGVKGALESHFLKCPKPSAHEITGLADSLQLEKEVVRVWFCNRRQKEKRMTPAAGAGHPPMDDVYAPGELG
- assay.method.text: EMSA; 10% glycerol, 20 mM HEPES pH 7.8, 45 mM KCl, 10 mM NaCl, 1 mM EDTA, 1 mM DTT, 0.2 ug/uL BSA, 0.1% NP-40, 50 ng poly-dIdC; 20 ng each GST protein; room temperature 30 min (heterodimers 4 C); 6% PAGE 0.25x TBE
- details: protein: recombinant; tags: GST (N-terminal, pGEX-6P-1); label: 32P-dCTP fill-in of the 5' (dG)5 overhangs of both strands (Methods; control probes are given with GGG)
attribute.measured: binding result

1) 73 (dsDNA) DNA 1: GGGGGCTTGTCCTCAGCATCTATGGTAACACACAAATCCTGAAGCCCCC DNA 2: GGGGGCTTCAGGATTTGTGTGTTACCATAGATGCTGAGGACAAGCCCCC	no binding
2) 18 (dsDNA) DNA 1: GGGGGCTTAGAATTAGTAATTTCTTGATATTGTCTGTTAAGCCCCC DNA 2: GGGGGCTTAACAGACAATATCAAGAAATTACTAATTCTAAGCCCCC	binds
3) 36 (dsDNA) DNA 1: GGGGGTGCATACATTTGTAATTCATTTAGGTGGTTTTCCCCC DNA 2: GGGGGAAAACCACCTAAATGAATTACAAATGTATGCACCCCC	binds
4) 89 (dsDNA) DNA 1: GGGGGCTACCACACCCAACCTCTAGTAAAGGTTTACAAAATGAATGACCCCC DNA 2: GGGGGTCATTCATTTTGTAAACCTTTACTAGAGGTTGGGTGTGGTAGCCCCC	no binding

Entry source: paper PMC3713010
